experimental.system: hPTH-2 receptors (Homo sapiens, UniProt P49190)
Construct: expressed in transfected cells
Sequence (P49190 25-550): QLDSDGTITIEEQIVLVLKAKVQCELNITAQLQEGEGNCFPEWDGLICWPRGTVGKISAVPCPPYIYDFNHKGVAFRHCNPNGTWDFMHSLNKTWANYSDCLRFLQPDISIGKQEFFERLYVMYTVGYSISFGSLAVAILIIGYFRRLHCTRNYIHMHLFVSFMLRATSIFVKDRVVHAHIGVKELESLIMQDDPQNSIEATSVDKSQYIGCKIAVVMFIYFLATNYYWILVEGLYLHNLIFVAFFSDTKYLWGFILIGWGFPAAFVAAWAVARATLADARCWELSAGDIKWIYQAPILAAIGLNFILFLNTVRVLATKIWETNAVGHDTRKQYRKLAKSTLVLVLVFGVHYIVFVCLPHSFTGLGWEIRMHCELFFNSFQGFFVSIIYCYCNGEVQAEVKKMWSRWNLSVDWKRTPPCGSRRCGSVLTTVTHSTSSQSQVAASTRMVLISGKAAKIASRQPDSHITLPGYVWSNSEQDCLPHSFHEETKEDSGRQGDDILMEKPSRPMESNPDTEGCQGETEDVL
assay.protocol: cAMP measurements in clonal LLC-PK1 cells (HPR2-7)
Type: cell-based
condition.label: clonal LLC-PK1 cells stably expressing human PTH-2 receptors; read-out: EC50 for activation of AC
reported.metric: EC50 (nM)
Reply numerically in nM, unit not repeated.

For record Ac-VSEIQLMHNLGKHLNSMERVEWLRKKLQDVHNF-NH2 [desamino-[Gly^1]hPTH(1-34)NH2] the listed EC50 is 10

meta.source: patent US6537965B1
